Catalogue of molecules with associated half-life
Assay: Half life in Sprague-Dawley rat at 2 mg/kg, iv by LC-MS/MS analysis
Assay type: ADME, organism-based
Details: in vivo

Molecule: CC(=O)N1CCN(c2cccc(NC(=O)c3cc4c(F)ccc(C)c4[nH]3)c2)CC1
half-life, h: 0.8
--
Molecule: CC(=O)N1CCN([C@H]2CCC[C@@H](NC(=O)c3cc4c(F)ccc(C)c4[nH]3)C2)CC1 [EZM-0414]
half-life, h: 4

* * *

Catalogue of compounds with associated CLint scaled at 0.5 µM
Assay: Stability in mouse hepatocytes assessed as intrinsic clearance at 0.5 uM measured after 60 mins by LC/MS/MS analysis
Assay type: ADME, cell-based, Hepatocyte
Conditions: read-out: CLH
Property name: CLint scaled at 0.5 µM (mL/min/kg)

Molecular string: CC(=O)N1CCN(c2cccc(NC(=O)c3cc4c(F)ccc(C)c4[nH]3)c2)CC1
Value: 678
//
Molecular string: CC(=O)N1CC[C@H]2CN([C@H]3CCC[C@@H](NC(=O)c4cc5c(F)ccc(C)c5[nH]4)C3)C[C@H]21
Value: 889
//
Molecular string: CC(=O)N1CCN([C@H]2CCC[C@@H](NC(=O)c3cc4c(F)ccc(C)c4[nH]3)C2)CC1
Value: 216
//
Molecular string: Cc1ccc(F)c2cc(C(=O)N[C@@H]3CCC[C@H](N4CCN5C(=O)CC[C@H]5C4)C3)[nH]c12
Value: 425
//
Molecular string: CC(=O)N1CC[C@H]2[C@@H]1CCN2[C@H]1CCC[C@@H](NC(=O)c2cc3c(F)ccc(C)c3[nH]2)C1
Value: 103
